method: chemical genetic growth profiling, strain panel (AID 1159580);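 further: tested at 20 µM; growth read once vehicle control cultures reached saturation at 30 °C; 1 = growth at the plate median or of vehicle wells; lower values mean less growth of the strain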
measurement parameters: S. cerevisiae deletion strains, growth OD, locus YOR265W, strain rbl2, stronger effect = lower value
In all, about 5,500 compounds went through this assay and about 2,000 (36%) were called active. Inconclusive results (about 18%) are left out. This is one part of the list. Where a SMILES comes first, the peptide text is derived from it.
Assign normalized growth to each entry below.
Give only the figure.

I am curious: what normalized growth value has been reported for `NC(N)=NCCN1CCCCCCC1` ?
1.05

Cool, now CC12CCCCC1(Br)[N+](=O)N2[O-] (configuration not stated)
0.991

Next: `Clc1ccccc1CN1CCc2sccc2C1`
1.01

Similarly, COC[C@]12CN(C=O)C3[C@@H]4[C@H](OC)C1[C@]3(C1CC3(O)C(OC)C(O)C4(OC(C)=O)C1C3OC(=O)c1ccccc1)[C@@H](OC)C[C@H]2O (some centres not stated) ?
1

`C1N2CN3CN1CN(C2)C3` ?
0.993

Similarly, `Cc1cc(/C=C/c2ccc3cc(N(C)C)ccc3[n+]2C)c(C)n1-c1ccccc1` ?
0.92

Record: `CC(O)(P(=O)(O)O)P(=O)(O)O`
0.989

Please give the result for `CC(=O)OC/C=C(\C)CC/C=C(\C)CC/C=C(\C)CC/C=C(\C)CC/C=C(\C)CC/C=C(\C)CC/C=C(\C)CC/C=C(\C)CCC=C(C)C` too.
0.996

And for `COC(=O)[C@H](c1ccccc1Cl)N1CCc2sccc2C1` ?
0.985

Also need CC1(C)N([O-])[N+](=O)C1(C)Br (configuration not stated) , thanks.
0.993

Would you mind doing NC(C(=O)O)C(O)C(=O)O (configuration not stated) as well?
0.987

// next record `CC(C)(S)[C@@H](N)C(=O)O`
1

Could you do the same for `CC(C)c1nc(N(C)S(C)(=O)=O)nc(-c2ccc(F)cc2)c1/C=C/[C@@H](O)C[C@@H](O)CC(=O)O` , please?
1.01

And then `Cc1oncc1C(=O)Nc1ccc(C(F)(F)F)cc1` , what is it?
0.979

Also check `CN1CCC[C@@H]1CCO[C@](C)(c1ccccc1)c1ccc(Cl)cc1`
0.998

Same question for `C[C@H]1C[C@@H](O)[C@]2(O)[C@@]13CC(=O)OC[C@@]2(C)[C@](C)(O)C(=O)C3` please.
1.02

Okay, and CCN1C[C@@]2(COC)C3[C@@H](OC)[C@H]4[C@@H]1[C@]3(C(OC)C[C@H]2O)C1C[C@@]2(O)[C@H](OC(=O)c3ccccc3)C1[C@]4(OC(C)=O)[C@@H](O)[C@@H]2OC (some centres not stated) ?
0.999

What do we get for `CCCn1c(=O)c2[nH]c(C3CCCC3)nc2n(CCC)c1=O` ?
0.991

What about `Cc1ccc(C(=O)c2ccc(CC(=O)O)n2C)cc1` ?
1.01

Entry to check: COC(=O)[C@@H]1OC(=O)C2OC23[C@@]1(C)CCC1[C@]2(C)C(C[C@@H](O)[C@]13C)C(C)(C)[C@H](OC(C)=O)C[C@@H]2OC(C)=O (some centres not stated)
0.983

Another compound to check: NCC[C@@H](O)C(=O)N[C@@H]1C[C@H](N)[C@@H](O[C@H]2O[C@H](CN)[C@@H](O)[C@H](O)[C@H]2O)[C@H](O)[C@H]1O[C@H]1O[C@H](CO)[C@@H](O)[C@H](N)C1O (some centres not stated)
1.04

Try this compound too: `COP(=S)(OC)Oc1ccc([N+](=O)[O-])cc1`
1.01

Same again, this time with CCCCC(=O)O[C@]1(C(=O)CO)CCC2C3CCC4=CC(=O)CC[C@]4(C)C3[C@@H](O)C[C@@]21C (some centres not stated)
0.977

Then this compound: CN[C@@H]1C(OC2[C@H](O[C@H]3[C@H](O)[C@@H](O)[C@H](N=C(N)N)[C@@H](O)[C@@H]3N=C(N)N)OC(C)[C@]2(O)CO)OC(CO)C(O)C1O (some centres not stated)
0.998

Also `NC(N)=NCCCCN=C(N)N` ?
1.01

Another compound: COc1ccc2nc(S(=O)Cc3ncc(C)c(OC)c3C)[nH]c2c1 (configuration not stated)
0.995

Also check CC(=O)N[C@@H](CC(=O)O)C(=O)N[C@@H](CCC(=O)O)C(=O)O (Ac-Asp-Glu-OH)
1.01
